All figures here come from the supplement of paper PMC10567573.

Listed here: items and their measured protein stability index.
B1: CLK3 (parent)
chain: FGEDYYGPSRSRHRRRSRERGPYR

# Variants of: B1
# test.details: protein stability index of a GFP-peptide fusion (GPS, HEK-293T) (PSI 1-6); higher = more stable;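 further: lentivirally expressed fusions sorted by FACS into six bins by GFP to DsRed ratio, PSI derived from sequencing read proportions per bin multiplied by bin number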
# setup.conditions: c terminus: a fixed tail appended
endpoint: protein stability index

* FGEDYYGPSRSRHRRRERERGPYR [S17E] | 2.01
* FGEDYYGPSISRHRRRSRERGPYR [R10I] | 2.64
* FGEDYYGPSRSRHRRRSRERGPER [Y23E] | 2.35
* FGEDYYGPSRSRHRLRSRERGPYR [R15L] | 2.23
* FGEDYYGNSRSRHRRRSRERGPYR [P8N] | 2.32
* FGEDYYGPSRSRHRRRSRERVPYR [G21V] | 2.39
* FGEDYYGPSRSRHRRRPRERGPYR [S17P] | 2.6
* FGEDYYGPSRSRHRRRSRERGPYW [R24W] | 2.18
* FGEDYYGPSRSRHRRRSRERGPQR [Y23Q] | 3.46
* FGEDYYGPSRSRHRRRSRERGPYG [R24G] | 3.26
